Literature roundup of Aurora kinase B (Homo sapiens, UniProt Q96GD4) data, read-out pIC50.
pIC50: −log10 of the molar value.
MEASURED_QUANTITY: pIC50

Here's what some known entries look like.
compound=COc1cc2nccc(Oc3ccc4c(C(=O)NC(C)C)cccc4c3)c2cc1OC result_number=6.72
compound=CNC(=O)Cn1cc(-c2cnc3c(Nc4cc(CN5CCCCC5)ns4)nc(C)cn23)cn1 result_number=6.71
compound="CCOC(=O)c1[nH]nc2c1NC1=C(C(=O)CCC1)C2c1ccc(Sc2nc3ccccc3[nH]2)o1 (racemic)" result_number=7.48
compound=COc1ccc(-c2nc3c(NCCCNC(=O)C4CCCC4)c(-c4nc(C(N)=O)cs4)cnc3[nH]2)cc1 result_number=6.55

I. CCn1cc(-c2ccnc3[nH]c(CNCCN(C)C)cc23)c(-c2ccc(NC(=O)Nc3ccccc3)cc2)n1
II. O=C1CCCC2=C1C(c1ccc(Sc3nc4ccccc4[nH]3)o1)c1c[nH]c(C(=O)O)c1N2 (single isomer, unassigned; (+))
Enquiry: Pick one: I or II . Which one has the lower reported pIC50? Identify your pick by its label.
Return: I
(I: 6.56, II: 7.80)

----------
Reported IC50 against Aurora kinase B (Homo sapiens), gathered from multiple publications, appears below.
Sequence (Q96GD4 whole entry): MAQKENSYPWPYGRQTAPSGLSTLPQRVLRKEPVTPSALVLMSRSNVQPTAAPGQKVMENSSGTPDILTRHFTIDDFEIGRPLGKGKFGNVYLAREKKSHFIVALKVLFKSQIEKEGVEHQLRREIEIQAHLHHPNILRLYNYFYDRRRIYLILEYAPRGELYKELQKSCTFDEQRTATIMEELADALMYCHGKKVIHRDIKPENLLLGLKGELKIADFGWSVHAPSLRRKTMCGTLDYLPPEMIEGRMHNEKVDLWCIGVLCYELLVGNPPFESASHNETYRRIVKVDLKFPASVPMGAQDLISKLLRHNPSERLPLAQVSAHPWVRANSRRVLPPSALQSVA
MEASURED_QUANTITY: IC50 (nM)

Below are worked cases with known answers.
molecule=COc1cc2c(Oc3ccc(-c4nc5ccccc5s4)cc3F)ncnc2cc1OCCCN1CCN(C)CC1 measured_quantity=IC50 result_number=130
molecule=Cn1cc(Nc2ncc(C(F)(F)F)c(N[C@H]3[C@@H](C(N)=O)C[C@H]4C[C@@H]3C4(C)C)n2)cn1 measured_quantity=IC50 result_number=43
molecule="Cc1cn2c(-c3cnn(CC(=O)O)c3)cnc2c(Nc2cc(CN3CCCC(C)C3)ns2)n1 (centres undefined)" measured_quantity=IC50 result_number=146
molecule=Cn1cc(Nc2ncc(C(F)(F)F)c(N[C@H]3C[C@@H]4CC[C@H]3C4)n2)cn1 measured_quantity=IC50 result_number=61
molecule=COc1cc(-c2nc3ccccc3s2)ccc1Nc1ncnc2cc(OC)c(OCCCN3CCN(C)CC3)cc12 measured_quantity=IC50 result_number=1900

I. Cc1ccc(C2=Nc3c(n[nH]c3C)Nc3nc(N4CCN(C)CC4)ncc32)cc1
II. Cc1cn2c(-c3cnn(CC(=O)NCc4ncco4)c3)cnc2c(Nc2cc(CN3CCCC(C)C3)ns2)n1 (centres undefined)
Enquiry: Smaller IC50 value, I vs II ? State the label of the item chosen.
Return: I

----------
Here we gather IC50 data for Aurora kinase B (Homo sapiens) reported by several publications.
MEASURED_QUANTITY: IC50 (µM)

smiles_entry=C[C@@H]1CC[C@H](C(=O)Nc2ccccc2)CN1c1cc(-c2ccc3c(N)[nH]nc3c2)nc(N)n1 result_number=1
smiles_entry=CCc1cccc(CC)c1NC(=O)N1Cc2n[nH]c(NC(=O)c3ccc(N4CCN(C)CC4)cc3)c2C1 result_number=0.035
smiles_entry=O=C(Nc1ccccc1)Nc1ccc(-c2n[nH]cc2-c2ccnc3[nH]ccc23)cc1 result_number=0.032
smiles_entry=CCOC(=O)c1cnc2ccccc2c1Nc1cccc(NS(C)(=O)=O)c1 result_number=13.2

I. Cc1cc2c(-c3ccc(S(=O)(=O)N(C)CCO)cc3)ccnc2[nH]1
II. Cc1cccc(NC(=O)Nc2ccc(-c3csc4c(-c5cn[nH]c5)cnc(N)c34)cc2)c1
Enquiry: Please indicate which has the smaller reported IC50: I , or II . Give the label under which the chosen entry appears.
Return: II
(II: 0.008 µM, I: 1.58 µM)
